Target: T1, human IL-33 (R&D Systems, #3625-IL-010/CF) (human, UniProt O95760 112-270)
T1 construct: Commercial recombinant protein; also called hIL-33; interleukin-33
T1 sequence (looked up): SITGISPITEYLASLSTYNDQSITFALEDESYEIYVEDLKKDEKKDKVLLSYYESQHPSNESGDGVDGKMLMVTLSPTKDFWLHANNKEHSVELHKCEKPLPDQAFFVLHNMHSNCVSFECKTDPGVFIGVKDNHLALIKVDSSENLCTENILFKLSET
Assay: SPR 37C, pH6.0 chase, mAb captured
Procedure: Equilibrium dissociation constants (KD values) for IL-33 binding to purified anti-IL-33 monoclonal antibodies were determined using a real-time surface plasmon resonance biosensor using a Biacore 4000 instrument. […] Association of either hIL-33 or MfIL-33-6His to the captured monoclonal antibody was monitored for 4 minutes and their dissociation in ABS-ET running buffer was monitored for 10 minutes. […]
Decision: t½ Ratio (pH 7.4/pH 6.0) >= 6 yields condition met, all other cases yield condition not met.

## Input Evaluate H4H9662P (antibody, V domains shown, Human IgG4 Fc (H4H)) VH: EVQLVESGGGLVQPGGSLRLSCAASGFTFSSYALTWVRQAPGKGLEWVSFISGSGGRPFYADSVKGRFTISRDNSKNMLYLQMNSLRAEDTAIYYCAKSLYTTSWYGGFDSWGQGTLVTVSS VL: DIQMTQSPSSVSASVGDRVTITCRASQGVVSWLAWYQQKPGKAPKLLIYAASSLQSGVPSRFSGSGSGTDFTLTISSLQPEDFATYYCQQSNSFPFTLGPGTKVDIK : t½ Ratio (pH 7.4/pH 6.0) at minimum 6?
## Output condition met

## Input Reported t½ Ratio (pH 7.4/pH 6.0) at or above 6? H4H9640P (antibody, human IgG4, V domains shown, Human IgG4 Fc (H4H)) VH: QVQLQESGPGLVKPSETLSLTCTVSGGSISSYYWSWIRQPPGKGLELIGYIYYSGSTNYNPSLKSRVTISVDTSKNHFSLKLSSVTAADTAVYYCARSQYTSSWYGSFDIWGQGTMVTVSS VL: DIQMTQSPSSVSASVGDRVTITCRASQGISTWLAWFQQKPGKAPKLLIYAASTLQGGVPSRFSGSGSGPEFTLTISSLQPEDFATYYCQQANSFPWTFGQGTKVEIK
## Output condition not met

## Input Confirm if t½ Ratio (pH 7.4/pH 6.0) reported for the binder H4H9663P (antibody, human IgG4, V domains shown, Human IgG4 Fc (H4H)) VH: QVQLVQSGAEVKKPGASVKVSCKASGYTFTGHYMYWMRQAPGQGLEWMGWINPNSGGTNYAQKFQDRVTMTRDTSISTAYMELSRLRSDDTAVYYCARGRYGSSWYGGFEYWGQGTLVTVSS VL: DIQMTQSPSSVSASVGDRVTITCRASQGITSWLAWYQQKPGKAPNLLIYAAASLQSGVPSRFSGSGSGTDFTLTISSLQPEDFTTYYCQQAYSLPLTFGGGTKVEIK is 6 or above.
## Output condition not met

## Input // inclusive: t½ Ratio (pH 7.4/pH 6.0) at least 6? input: H4H9660P (antibody, human IgG4, V domains shown, Human IgG4 Fc (H4H)) VH: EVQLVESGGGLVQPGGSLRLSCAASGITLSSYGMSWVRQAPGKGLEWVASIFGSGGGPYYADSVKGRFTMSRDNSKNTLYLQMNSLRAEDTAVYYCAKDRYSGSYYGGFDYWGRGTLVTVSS VL: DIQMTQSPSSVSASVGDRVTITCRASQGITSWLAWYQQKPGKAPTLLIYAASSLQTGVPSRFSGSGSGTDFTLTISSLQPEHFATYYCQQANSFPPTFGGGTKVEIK
## Output condition met

## Input Has H4H9676P (antibody, human IgG4, V domains shown, Human IgG4 Fc (H4H)) VH: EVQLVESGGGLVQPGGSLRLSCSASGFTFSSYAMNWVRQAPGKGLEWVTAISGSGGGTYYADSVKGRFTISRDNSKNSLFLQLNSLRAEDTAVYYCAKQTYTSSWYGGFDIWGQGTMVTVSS VL: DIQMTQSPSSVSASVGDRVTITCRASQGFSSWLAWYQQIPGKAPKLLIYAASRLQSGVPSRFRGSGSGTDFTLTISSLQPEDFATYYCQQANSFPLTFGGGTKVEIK a recorded t½ Ratio (pH 7.4/pH 6.0) greater than or equal to 6?
## Output condition not met

## Input Hi team, for H4H9666P (antibody, human IgG4, V domains shown, Human IgG4 Fc (H4H)) VH: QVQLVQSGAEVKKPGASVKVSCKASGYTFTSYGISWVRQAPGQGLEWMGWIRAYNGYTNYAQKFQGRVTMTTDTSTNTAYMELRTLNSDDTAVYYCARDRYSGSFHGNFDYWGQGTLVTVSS VL: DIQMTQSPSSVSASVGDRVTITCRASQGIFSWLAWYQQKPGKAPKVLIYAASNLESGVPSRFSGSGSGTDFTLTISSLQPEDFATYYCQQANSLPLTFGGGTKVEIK , is the recorded t½ Ratio (pH 7.4/pH 6.0) at or above 6?
## Output condition met
